This section presents molecules with their documented GI50 values.
test system: OVCAR-5 ovarian; assay: NCI tumour cell line growth inhibition, 48 h

# lookup: GI50 of COC(=O)[C@]1(C)CC[C@]2(C)CC[C@]3(C)C(=CC(=O)[C@@H]4[C@@]5(C)CCC(=O)NC(C)(C)[C@@H]5CC[C@]43C)[C@@H]2C1
21.3 µM

Entry to check: CN1C(=O)C(C)(C)Oc2c(-c3cn(C)c(=O)c4[nH]ccc34)cc(S(C)(=O)=O)cc21
1.06 µM

Next record, please: CC1CC2(C)CC(=O)C1C1C(=O)N(CCN3CCOCC3)C(=O)C12 (stereo unspecified)
> 100 µM

What do you have for CCN1C(=O)N(CC)C2C1NN=c1s/c(=C\c3cnc(C)n3C)c(=O)n12 (stereo unspecified) ?
3.68 µM
